Here the recorded TGI is given for each entry.
System: RXF 393 renal
Assay: NCI tumour cell line growth inhibition, 48 h
Respond numerically; units are µM and should not be typed.

Consider the reported TGI for these compounds:
- O=C1C(=O)C(CCCO)(CCCO)CCCCCCCCC1(CCCO)CCCO: 68.8
- CC(C)=CCC[C@](C)(O)[C@H]1CC[C@]2(C)[C@@H]1CC[C@@H]1[C@@]3(C)CC[C@H](OC(=O)CCC(=O)O)C(C)(C)[C@@H]3CC[C@]12C: 85

Next item in the queue.
Prompt line: Given the compound COc1cc(C(=O)c2c(-c3ccccc3)oc3ccccc23)cc(OC)c1O , what is its reported TGI?
Response line: 8.95

====

Tested on: SK-MEL-28 melanoma
Assay: NCI tumour cell line growth inhibition, 48 h
Parameter Measured: TGI

Consider the reported TGI for these compounds:
• NC(=NC1C2CC3CC(C2)CC1C3)Nc1ccc(I)cc1 (stereo unspecified) = 7.58 µM
• O=C(NC(Cc1c[nH]c2ccccc12)C(=O)O)/C(=C/c1ccccc1)NC(=O)c1ccccc1 (stereo unspecified) = > 100 µM
• CCSc1nn(-c2c3ccccc3nc3ccccc23)c(=S)s1 = > 100 µM
• O=C(O)C1C2CC3CC2CC31 (stereo unspecified) = > 100 µM
• Cc1cc(C(C)(C)C)c(OCCCN2CCOCC2)c(C(C)(C)C)c1 = 30.5 µM
• CCCNC(=O)Cn1c(-c2ccccc2)cc2ccccc21 = > 100 µM
• CCn1cc(C2NC(=O)c3cc(F)ccc3N2)c2cccc(Cl)c21 (stereo unspecified) = > 100 µM
• O=C1CCCC2COc3ccc(O)c1c32 (stereo unspecified) = > 100 µM

Prompt line: Given the compound C/C(=N\n1c(N)c(C#N)c(-c2ccc(Cl)cc2)c(C#N)c1=O)c1cccnc1 , what is its reported TGI?
Response line: > 100 µM

Prompt line: Given the compound CCOC(=O)c1cc2cc([N+](=O)[O-])ccc2oc1=O , what is its reported TGI?
Response line: > 100 µM

Prompt line: Given the compound CCn1c2ccccc2c2cc(NC(=O)c3c(C)[nH]c(=O)[nH]c3=S)ccc21 , what is its reported TGI?
Response line: > 100 µM

====

Test system: NCI-H522 lung
Assay: NCI tumour cell line growth inhibition, 48 h
Here the recorded TGI is given for each entry.

Consider the reported TGI for these compounds:
- CCOC(=O)c1cc2cc([N+](=O)[O-])ccc2oc1=O: > 100 µM
- COC(=O)C1CC(C=O)=C(SC)N1 (configuration not stated): > 50 µM
- NC(Cc1ccccc1)C(=O)O (configuration not stated): > 100 µM
- O=C(N/N=C\c1cc(Cl)ccc1O)N/N=C/c1cc(Cl)ccc1O: 19 µM
- S=C1OC2C3C4CC5C3C(O1)C1C5C4C21 (configuration not stated): > 100 µM

Prompt line: Give TGI (NCI-H522 lung) of the following compound: CCc1ccc(/C=C2/SC(=S)NC2=O)cc1
Response line: 43.8 µM

Prompt line: Give TGI (NCI-H522 lung) of the following compound: O=C1C=Cc2noc3cccc1c23
Response line: 3.04 µM

Prompt line: Give TGI (NCI-H522 lung) of the following compound: Cc1cccc(/C=N/NC(=S)NC(C)(C)C)n1
Response line: > 100 µM

Prompt line: Give TGI (NCI-H522 lung) of the following compound: NC(=O)c1ccc(NC(=O)c2oc3ccccc3c2-c2cnn(-c3ccccc3)c2)cc1
Response line: > 100 µM

Prompt line: Give TGI (NCI-H522 lung) of the following compound: C(=C1/CCCCC([n+]2ccccc2)=N1)/c1ccccc1
Response line: > 100 µM

Prompt line: Give TGI (NCI-H522 lung) of the following compound: Fc1cc(Nc2ccc3c(OCCCN4CCOCC4)cccc3n2)ccc1Cl
Response line: 3.35 µM

Prompt line: Give TGI (NCI-H522 lung) of the following compound: CC(CN(C)C)C(O)(c1ccccc1)c1ccccc1 (configuration not stated)
Response line: > 100 µM

====

Test system: EKVX NSCLC
Test: NCI tumour cell line growth inhibition, 48 h
Parameter Measured: TGI

Consider the reported TGI for these molecules:
• O=[N+]([O-])c1ccc(-c2nc3ccccc3o2)cc1 = > 100 µM
• CN(c1ccccc1)c1c(-c2ccccc2)c(=O)oc2c1ccc1occc12 = > 100 µM
• Cc1ccc(S(=O)(=O)ON=C2CC(c3ccccc3)N(C)C(c3ccccc3)C2)cc1 (stereo unspecified) = > 100 µM
• Nc1nc(Cl)cc(NCCCCCCCCCCNc2cc(Cl)nc(N)n2)n1 = > 100 µM
• N#CC(C#N)=C/C=C/c1cccc([N+](=O)[O-])c1 = 27.8 µM

Prompt line: Given the molecule OCC1CC2CC1C1(C2)OCCO1 (stereo unspecified) , what is its reported TGI?
Response line: > 100 µM

====

System: COLO 205 colon
Experiment: NCI tumour cell line growth inhibition, 48 h
Parameter Measured: TGI

- C[P+](C)(CC(F)(F)F)c1ccccc1: > 100 µM

Prompt line: Given the compound CC1Oc2c(c(O)cc3oc(=O)cc(-c4ccccc4)c23)C(=O)C1C (stereo unspecified) , what is its reported TGI?
Response line: > 100 µM

Prompt line: Given the compound NC(=O)Nc1n[nH]c(-c2ccccc2)n1 , what is its reported TGI?
Response line: > 100 µM

Prompt line: Given the compound CCOc1cc(C=Nc2ccc(Oc3ccc(Cl)cc3)c(Cl)c2)ccc1O , what is its reported TGI?
Response line: 44.6 µM

Prompt line: Given the compound NCCCN1CCN(CCCNc2ccc3ncn4c5ccccc5c(=O)c2c34)CC1 , what is its reported TGI?
Response line: 2.66 µM

Prompt line: Given the compound Cc1ccc(C)c2sc3cc(=O)ccc-3nc12 , what is its reported TGI?
Response line: > 100 µM

Prompt line: Given the compound Cn1cnc([N+](=O)[O-])c1Sc1nncc2[nH]cnc12 , what is its reported TGI?
Response line: > 100 µM

Prompt line: Given the compound C#Cc1ccccc1C(=O)OC , what is its reported TGI?
Response line: > 100 µM

Prompt line: Given the compound Cc1ccc(N=Nc2cc(=O)[nH]c(=O)[nH]2)cc1C , what is its reported TGI?
Response line: 19.9 µM

====

System: U251 CNS
Assay: NCI tumour cell line growth inhibition, 48 h
Here the recorded TGI is given for each entry.

- CC(C)(CN1CCCCC1)C(=O)CC(SCCS(=O)(=O)O)c1ccc(Cl)c(Cl)c1 (stereo unspecified): 19.3 µM
- CC[N+]1(C)CCC(O)(/C=C/c2ccc(Cl)c(Cl)c2)C(C(=O)/C=C/c2ccc(Cl)c(Cl)c2)C1 (stereo unspecified): 3.71 µM
- CN(NC(=O)/C(=C/C=C/c1ccccc1)NC(=O)c1ccccc1)C1=C(Cl)C(=O)[N+](c2ccccc2)=CC1: 40.2 µM

Prompt line: Give TGI (U251 CNS) of the following compound: O=C(O)CNS(=O)(=O)c1ccc(NC(=O)c2cccc([N+](=O)[O-])c2)cc1
Response line: > 100 µM

Prompt line: Give TGI (U251 CNS) of the following compound: CC(=O)Nc1oc(C)nc1C#N
Response line: > 100 µM

Prompt line: Give TGI (U251 CNS) of the following compound: N#CC(/C(=N\NC(N)=S)C(=O)NC1C2CC3CC(C2)CC1C3)c1ccc(Cl)cc1 (stereo unspecified)
Response line: > 100 µM

Prompt line: Give TGI (U251 CNS) of the following compound: C[N+](C)(C)c1nc(N)nc2c1ncn2C1OC(CO)C(O)C1O (stereo unspecified)
Response line: > 100 µM

Prompt line: Give TGI (U251 CNS) of the following compound: Cc1cc2nnn(C3CCCO3)c2cc1C (stereo unspecified)
Response line: > 100 µM

Prompt line: Give TGI (U251 CNS) of the following compound: N#CC(C#N)=C/C=C/c1cccc([N+](=O)[O-])c1
Response line: 5.03 µM

Prompt line: Give TGI (U251 CNS) of the following compound: NC(=O)Nc1n[nH]c(-c2ccccc2)n1
Response line: > 100 µM

Prompt line: Give TGI (U251 CNS) of the following compound: CCCS(=O)OC1C(C2COC(C)(C)O2)OC2OC(C)(C)OC21 (stereo unspecified)
Response line: 28.4 µM

Prompt line: Give TGI (U251 CNS) of the following compound: NCCCN1CCN(CCCNc2ccc3ncn4c5ccccc5c(=O)c2c34)CC1
Response line: > 25 µM

Prompt line: Give TGI (U251 CNS) of the following compound: O/N=C1/CCCCC1NO (stereo unspecified)
Response line: > 100 µM

====

Tested on: PC-3 prostate
Experiment: NCI tumour cell line growth inhibition, 48 h; in the data active = GI50 below about 0.43 µM; inactive = the rest
Respond with a class label; see active, inactive

• Brc1ccc2[nH]cc(-c3nc(-c4c[nH]c5ccncc45)cs3)c2c1 = inactive

Consider the record given below.
Prompt line: # outcome recorded in this test, key = CN(C)c1ccc(/C=N/Nc2ccc(-c3nc4ccccc4[nH]3)cc2)cc1
Response line: inactive
